Entries and their log10 of koff
# measuredTarget: T1, mouse programmed cell death protein 1 Fc fusion protein (mPD-1-Fc), mPD-1 C60S (aa 25-167) (Mus musculus, UniProt Q02242, stabilised)
# T1 construct: not cleaved; source: Expi293F, purified (Protein A, SEC; dimeric fraction); not shown: Fc (human), C-terminal, kept
# assayProcedure: SPR; Carterra LSA; Fab from the ammonium sulfate precipitate of the culture supernatant immobilised on a NiHC200M chip; hPD-1 (1-1024 nM) or mPD-1-Fc (4-1024 nM) as analyte, fourfold dilution series, no regeneration; HBS-EP pH 7.4, 25 °C; medians over the spots of a construct, KD = koff/kon
# conditionNotes: one partner purified
In plain terms, each number is the log10 of measured koff in s⁻¹.

Observe how each entry below is paired with its result.
toripalimab Fab L.N33A (Fab, V domains shown, as the heavy chain of Sm3; light chain of Sm3 with this change; numbers count from the chain's first residue; source: Brevibacillus, culture supernatant (ammonium sulfate precipitate); not shown: 6xHis, C-terminal, kept; 6xHN, C-terminal, kept) VH: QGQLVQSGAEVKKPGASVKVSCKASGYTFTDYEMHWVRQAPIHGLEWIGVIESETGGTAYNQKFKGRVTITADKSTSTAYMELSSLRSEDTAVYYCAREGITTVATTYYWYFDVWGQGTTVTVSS VL: DVVMTQSPLSLPVTLGQPASISCRSSQSIVHSAGNTYLEWYLQKPGQSPQLLIYKVSNRFSGVPDRFSGSGSGTDFTLKISRVEAEDVGVYYCFQGSHVPLTFGQGTKLEIK
-1.87
toripalimab Fab H.G57Y (Fab, V domains shown, heavy chain of Sm3 with this change; numbers count from the chain's first residue; as the light chain of Sm3; source: Brevibacillus, culture supernatant (ammonium sulfate precipitate); not shown: 6xHis, C-terminal, kept; 6xHN, C-terminal, kept) VH: QGQLVQSGAEVKKPGASVKVSCKASGYTFTDYEMHWVRQAPIHGLEWIGVIESETGYTAYNQKFKGRVTITADKSTSTAYMELSSLRSEDTAVYYCAREGITTVATTYYWYFDVWGQGTTVTVSS VL: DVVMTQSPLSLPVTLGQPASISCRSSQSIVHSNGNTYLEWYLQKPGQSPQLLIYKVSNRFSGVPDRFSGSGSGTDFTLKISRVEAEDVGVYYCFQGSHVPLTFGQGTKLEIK
-2.18
toripalimab Fab L.P100M (Fab, V domains shown, as the heavy chain of Sm3; light chain of Sm3 with this change; numbers count from the chain's first residue; source: Brevibacillus, culture supernatant (ammonium sulfate precipitate); not shown: 6xHis, C-terminal, kept; 6xHN, C-terminal, kept) VH: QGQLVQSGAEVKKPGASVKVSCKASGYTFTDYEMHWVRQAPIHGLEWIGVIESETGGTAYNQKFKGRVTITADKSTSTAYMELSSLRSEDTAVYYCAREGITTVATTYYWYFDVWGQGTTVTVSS VL: DVVMTQSPLSLPVTLGQPASISCRSSQSIVHSNGNTYLEWYLQKPGQSPQLLIYKVSNRFSGVPDRFSGSGSGTDFTLKISRVEAEDVGVYYCFQGSHVMLTFGQGTKLEIK
-3.92
toripalimab Fab L.K55Y (Fab, V domains shown, as the heavy chain of Sm3; light chain of Sm3 with this change; numbers count from the chain's first residue; source: Brevibacillus, culture supernatant (ammonium sulfate precipitate); not shown: 6xHis, C-terminal, kept; 6xHN, C-terminal, kept) VH: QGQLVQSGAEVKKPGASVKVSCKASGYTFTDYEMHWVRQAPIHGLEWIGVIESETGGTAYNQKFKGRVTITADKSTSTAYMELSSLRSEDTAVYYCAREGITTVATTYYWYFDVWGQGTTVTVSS VL: DVVMTQSPLSLPVTLGQPASISCRSSQSIVHSNGNTYLEWYLQKPGQSPQLLIYYVSNRFSGVPDRFSGSGSGTDFTLKISRVEAEDVGVYYCFQGSHVPLTFGQGTKLEIK
-2.03
toripalimab Fab L.S57Y (Fab, V domains shown, as the heavy chain of Sm3; light chain of Sm3 with this change; numbers count from the chain's first residue; source: Brevibacillus, culture supernatant (ammonium sulfate precipitate); not shown: 6xHis, C-terminal, kept; 6xHN, C-terminal, kept) VH: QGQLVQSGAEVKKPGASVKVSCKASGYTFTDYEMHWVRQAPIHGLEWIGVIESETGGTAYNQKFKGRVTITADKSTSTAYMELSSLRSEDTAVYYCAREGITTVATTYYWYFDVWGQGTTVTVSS VL: DVVMTQSPLSLPVTLGQPASISCRSSQSIVHSNGNTYLEWYLQKPGQSPQLLIYKVYNRFSGVPDRFSGSGSGTDFTLKISRVEAEDVGVYYCFQGSHVPLTFGQGTKLEIK
-2.27
toripalimab Fab L.P100S (Fab, V domains shown, as the heavy chain of Sm3; light chain of Sm3 with this change; numbers count from the chain's first residue; source: Brevibacillus, culture supernatant (ammonium sulfate precipitate); not shown: 6xHis, C-terminal, kept; 6xHN, C-terminal, kept) VH: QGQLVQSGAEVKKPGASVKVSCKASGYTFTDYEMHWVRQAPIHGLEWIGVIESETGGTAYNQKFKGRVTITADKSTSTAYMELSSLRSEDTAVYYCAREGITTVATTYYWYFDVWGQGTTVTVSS VL: DVVMTQSPLSLPVTLGQPASISCRSSQSIVHSNGNTYLEWYLQKPGQSPQLLIYKVSNRFSGVPDRFSGSGSGTDFTLKISRVEAEDVGVYYCFQGSHVSLTFGQGTKLEIK
-2.98

Turning to the following binder.
Find the recorded log10 of koff belonging to toripalimab Fab H.M34A (Fab, V domains shown, heavy chain of Sm3 with this change; numbers count from the chain's first residue; as the light chain of Sm3; source: Brevibacillus, culture supernatant (ammonium sulfate precipitate); not shown: 6xHis, C-terminal, kept; 6xHN, C-terminal, kept) VH: QGQLVQSGAEVKKPGASVKVSCKASGYTFTDYEAHWVRQAPIHGLEWIGVIESETGGTAYNQKFKGRVTITADKSTSTAYMELSSLRSEDTAVYYCAREGITTVATTYYWYFDVWGQGTTVTVSS VL: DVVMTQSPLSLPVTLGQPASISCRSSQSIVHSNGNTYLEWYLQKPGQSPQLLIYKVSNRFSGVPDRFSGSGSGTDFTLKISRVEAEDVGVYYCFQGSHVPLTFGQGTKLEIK and report it.
-2.17
